From: paper PMC3113660

ASSAY PROTOCOL: In vitro cytotoxicity assay
Format: cell-based, rat
ASSAY CONDITIONS: rat

>  <COMPOUND>
C[C@@H]1CC[C@H]2[C@@H](C)C(=O)O[C@@H]3O[C@@]4(C)CC[C@@H]1[C@]32OO4 [artemisinin, reference compound]

>  <IC50 at 70 h, µM>
450

$$$$
>  <COMPOUND>
COc1cc([C@@H]2c3cc4c(cc3[C@H](O)[C@H]3COC(=O)[C@H]23)OCO4)cc(OC)c1OC [podophyllotoxin]

>  <IC50 at 70 h, µM>
0.02

$$$$
>  <COMPOUND>
CCN(CC)CCCC(C)Nc1ccnc2cc(Cl)ccc12 (stereo not shown) [chloroquine, reference compound]

>  <IC50 at 70 h, µM>
117

$$$$
>  <COMPOUND>
Nc1nc(N)nc(Nc2ccc([As]3SCC(CO)S3)cc2)n1 (stereo not shown) [melarsoprol]

>  <IC50 at 70 h, µM>
7.78

$$$$
